- Subject Of Test: Fibroblast growth factor 22 (Homo sapiens)
- Test Details: FGF22 melting temperature shift by ligands – biophysical, thermal shift, cherry-pick retest, FGF22 synaptogenesis inhibitor project, dose response (AID 720646)
- Assay Context: recombinant FGF22 thermal shift, SYPRO orange fluorescence
Activity calls are given as the source filed them.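 How the source made its calls: active means fitted rise in melting shift crosses a set limit at or below the top valid dose tested; inconclusive means flat fit at mid-level activity, or a poor quality fit; inactive means the rest.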
Can you answer with just one of these options? active, inactive

COc1ccc(NC(=O)CCCN2C(=O)CN(C)C2=O)c(OC)c1: inactive
COc1ccc(/C=N/Nc2ccc([N+](=O)[O-])cc2)cc1O: active
C[C@@H]1CN([C@H](C)CO)C(=O)Cc2cc(N(C)C)ccc2O[C@@H]1CN(C)Cc1ccc(Cl)c(Cl)c1: active
O=C(N[C@H]1C=C[C@H](CC(=O)N2CCCCC2)O[C@H]1CO)c1cccc(F)c1: active
O=C(N/N=C/c1c[nH]c2ccccc12)c1cccc(Cl)c1: active
NC(=O)c1ccsc1NC(=O)COC(=O)Cc1c[nH]c2ccccc12: active

Status in this test for CCC(CC)CN1CCC(CN2C(=O)C(=O)NC[C@@H]2CC(C)C)CC1 ?
inactive

###

- Subject Of Test: Fibroblast growth factor 22 (Homo sapiens)
- Test Details: FGF22 melting temperature shift by ligands – biophysical, thermal shift, cherry-pick retest, FGF22 synaptogenesis inhibitor project, dose response (AID 720646)
- Assay Context: recombinant FGF22 thermal shift, SYPRO orange fluorescence
Activity calls are given as the source filed them.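 The calls were made as follows: active = fitted rise in melting shift crosses a set limit at or below the top valid dose tested; inconclusive = flat fit at mid-level activity, or a poor quality fit; inactive = the rest.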
Can you answer with just one of these options? TRUE (active), FALSE (inactive)

O=C(Cc1n[nH]c(=O)[nH]c1=O)N/N=C/c1c(O)ccc2ccccc12: FALSE
O=C(Nc1ccc(S(=O)(=O)N2CCOCC2)cc1)c1ccc(F)cc1: FALSE

Status in this test for Nc1nnc(CC(=O)N/N=C/c2cc([N+](=O)[O-])cc(Br)c2O)s1 ?
TRUE

Status in this test for COc1ccc(N2CCN(CCOc3ccc4c(C)cc(=O)oc4c3)CC2)cc1 ?
FALSE

Status in this test for Cc1cc(C)cc(NC(=O)CN2C(=O)NC(Cc3c[nH]c4ccccc34)C2=O)c1 (stereo not given) ?
FALSE

Status in this test for CC(C)c1c(C(=O)N/N=C/c2c[nH]c3ccccc23)nnn1-c1nonc1N ?
TRUE

Status in this test for CC1(C(=O)NS(=O)(=O)Cc2cccc(Cl)c2)CCN1C(=O)C1(c2ccc(Cl)cc2)CCC1 (stereo not given) ?
TRUE

Status in this test for Cc1cc(C(=O)N/N=C/c2c[nH]c3ccccc23)cs1 ?
TRUE

Status in this test for Cc1[nH]c2ccc(C(=O)OCC(=O)Nc3cccc(S(N)(=O)=O)c3)cc2c1C ?
TRUE

Status in this test for O=C(N/N=C/c1c[nH]c2ccccc12)c1cccs1 ?
TRUE

###

- Subject Of Test: Fibroblast growth factor 22 (Homo sapiens) (UniProt Q9HCT0)
- Sequence (Q9HCT0 whole entry, looked up): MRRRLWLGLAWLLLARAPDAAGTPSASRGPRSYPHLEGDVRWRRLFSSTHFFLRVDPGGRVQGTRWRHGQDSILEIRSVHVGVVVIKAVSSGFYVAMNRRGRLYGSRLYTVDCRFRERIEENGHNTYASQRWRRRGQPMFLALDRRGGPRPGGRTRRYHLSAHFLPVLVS
- Test Details: FGF22 melting temperature shift by ligands – biophysical, thermal shift, cherry-pick retest, FGF22 synaptogenesis inhibitor project, dose response (AID 720646)
- Assay Context: recombinant FGF22 thermal shift, SYPRO orange fluorescence
Calls of active or inactive are those of the source.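 Rule for the calls: active = fitted rise in melting shift crosses a set limit at or below the top valid dose tested; inconclusive = flat fit at mid-level activity, or a poor quality fit; inactive = the rest.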
Can you answer with just one of these options? Y for active, N for inactive

Status in this test for O=C(CC1SC(=O)NC1=O)Nc1ccc(Cl)cc1 (centres undefined) ?
Y

Status in this test for Cc1onc(-c2ccccc2)c1C(=O)Nc1ncc([N+](=O)[O-])s1 ?
Y

Status in this test for CCC(=O)Nc1nc(C)c(-c2csc(Nc3ccccn3)n2)s1 ?
Y

Status in this test for CC1([N+](=O)[O-])COP(=O)(NC2CC2)OC1 (centres undefined) ?
Y

Status in this test for O=C(N/N=C\c1c[nH]c2ccccc12)c1ccc(O)cc1 ?
Y

Status in this test for CNC[C@H]1Oc2ccc(NC(=O)Cc3cn(C)c4ccccc34)cc2C(=O)N([C@H](C)CO)C[C@H]1C ?
N

Status in this test for COC(=O)C(C)Oc1cc(OC(C)C(=O)OC)c2c(C)c(Cl)c(=O)oc2c1 (centres undefined) ?
N

Status in this test for CC(=O)Nc1cccc(C(=O)N/N=C/c2c[nH]c3ccccc23)c1 ?
Y

Status in this test for CC1C=NC(S(=O)(=O)N2CC[C@@H]3[C@@H](CO)N(C)c4ccc(-c5ccc(F)cc5)cc4[C@@H]32)=N1 (some centres undefined) ?
N

Status in this test for O=S(=O)(Nc1nnc(C(F)(F)F)s1)c1ccc(Cl)cc1 ?
Y
